# Tested on: Streptococcus faecalis
# Assay Method Text: Minimum inhibitory concentration (MIC) by agar dilution
# Assay type: cell-based
# Experimental Conditions: Enterococcus faecalis, 20 h, read-out: MINIMUM INHIBITORY CONCENTRATION
Each entry below carries its recorded MIC.
Numbers only here, please. The scale is µg/mL.

Provide one value: measured MIC of NC1CCN(c2c(F)cc3c(=O)c(C(=O)O)cn(C45CC(C4)C5)c3c2F)C1 (racemic)
0.5

Provide one value: measured MIC of O=C(O)c1cn(C23CC(C2)C3)c2nc(N3CCC(O)C3)c(F)cc2c1=O (racemic)
1

Provide one value: measured MIC of O=C(O)c1cn(C23CC(C2)C3)c2cc(N3CCNCC3)c(F)cc2c1=O
4

Provide one value: measured MIC of O=C(O)c1cn(C23CC(C2)C3)c2c(F)c(N3CCNCC3)c(F)cc2c1=O
2

Provide one value: measured MIC of O=C(O)c1cn(C23CC(C2)C3)c2c(F)c(N3CCC(O)C3)c(F)cc2c1=O (stereo not drawn)
1

Provide one value: measured MIC of CN1CCN(c2c(F)cc3c(=O)c(C(=O)O)cn(C45CC(C4)C5)c3c2F)CC1
4

Provide one value: measured MIC of NC1CCN(c2nc3c(cc2F)c(=O)c(C(=O)O)cn3C23CC(C2)C3)C1 (racemic)
0.5

Provide one value: measured MIC of O=C(O)c1cn(C23CC(C2)C3)c2nc(N3CCNCC3)c(F)cc2c1=O
2

Provide one value: measured MIC of O=C(O)c1cn(C2CC2)c2cc(N3CCNCC3)c(F)cc2c1=O [Ciprofloxacin, reference compound]
0.5

====

# System: Pseudomonas aeruginosa UC 95 (PA)
# Assay Method Text: Dip disk (disk-diffusion) assay, disks loaded with 0.05 ml
# Assay type: cell-based
# Experimental Conditions: Pseudomonas aeruginosa, UC95; 1.0 mcg/ml, 0.05 ml per disk; read-out: Growth Inhibition zone, PA
Each entry below carries its recorded zone of inhibition at 1 µg/mL.
Numbers only here, please. The scale is mm.

The cases that follow already have their zone of inhibition at 1 µg/mL on record.
Molecule | Unit Name | zone of inhibition at 1 µg/mL
COC(=O)/C=C(\C(=O)OC)N1CCN(c2c(F)cc3c(=O)c(C(=O)O)cn(C4CCC4)c3c2F)CC1 | mm | 16
COC(=O)/C=C(/NC1CCN(c2c(F)cc3c(=O)c(C(=O)O)cn(-c4ccc(F)cc4F)c3c2F)C1)C(=O)OC (centres unmarked) | mm | 28
COC(=O)/C=C(\C(=O)OC)N1CCN(c2c(F)cc3c(=O)c(C(=O)O)cn(-c4ccc(F)cc4)c3c2F)CC1 | mm | 15
COC(=O)/C=C(\C)NC1CCN(c2c(F)cc3c(=O)c(C(=O)O)cn(C4CC4)c3c2F)C1 (centres unmarked) | mm | 32

Lab note: next molecule to report on.
Provide one value: measured zone of inhibition at 1 µg/mL of COC(=O)/C=C(\C(=O)OC)N1CCN(c2c(F)c(N)c3c(=O)c(C(=O)O)cn(C4CC4)c3c2F)CC1
27

====

# Test system: Escherichia coli
# Assay Method Text: Minimum inhibitory concentration (MIC) by agar dilution
# Type: cell-based
# Experimental Conditions: Escherichia coli, UC6674, 20 h; E. coli UC 6674, Table CI; read-out: Minimum Inhibitory Concentration
# Procedure: The antibacterial activity of the compounds of Formula IC was determined by using standard testing procedures such as the determination of minimum inhibitory concentration (MIC) by agar dilution as described in "Methods for Dilution Antimicrobial Susceptibility Tests for Bacteria That Grow Aerobically" (MFT) published January 1983 by the National Committee for Clinical Laboratory Standards, 771 East Lancaster Avenue, Villanova, Pa. 19084, USA. […]
Each entry below carries its recorded MIC.
Numbers only here, please. The scale is µg/mL.

Compound | MIC (µg/mL)
C#CCn1cc(C(=O)O)c(=O)c2cc(F)c(N3CCC(N)C3)c(F)c21 (racemic) | 1
C#CC(C)(C)n1cc(C(=O)O)c(=O)c2cc(F)c(N3CCC(N)C3)c(F)c21 (racemic) | 0.125
C#CC(C)(C)n1cc(C(=O)O)c(=O)c2cc(F)c(N3CCC(N)C3)nc21.CS(=O)(=O)O (racemic) | 0.06

Lab note: next compound to report on.
Provide one value: measured MIC of O=C(O)c1cn(C2CC2)c2cc(N3CCNCC3)c(F)cc2c1=O [Ciprofloxacin, reference compound]
0.015

Origin of values: patent US5262417A
